system: Magen-Darm-Würmer(Ostertagia, Haemonchur, Trichostrongylus, Cooperia, jeweils verschiedene Spezies); assay: Chemotherapeutic test in sheep infected with gastrointestinal worms (egg count reduction / worm burden); format: in vivo; details: Tabelle 2; Wirtstier: Schaf; p.o.; quotient of Dosis tolerata maxima and Dosis curativa minima
Listing of entries alongside the reported Chemotherapeut. Index.
Number only, no unit.

* O=C(Nc1ccc(OC(F)(F)F)cc1)c1cc(Cl)ccc1NS(=O)(=O)c1ccc(Cl)c(Cl)c1 [Verbindung 35] | 5
* O=C(Nc1ccc(Cl)cc1)c1cc(Cl)ccc1NS(=O)(=O)c1ccc(F)cc1 [Verbindung 22] | 5
* O=C(Nc1ccc(Oc2ccc(Cl)cc2)c(Cl)c1)c1cc(I)cc(I)c1O [Rafoxanide, reference compound] | 6
* CCCCCCCCCCCCNC(=O)c1cc(Cl)cc(Cl)c1NS(=O)(=O)c1ccc(Cl)cc1 [Verbindung 16] | 10
* CN(C(=O)c1cc(Cl)ccc1NS(=O)(=O)c1ccc(Cl)cc1)c1ccc(Cl)cc1 [Verbindung 6] | 5
* O=C(Nc1ccc(Cl)cc1)c1cc([N+](=O)[O-])ccc1NS(=O)(=O)c1ccc(Cl)c(Cl)c1 [Verbindung 38] | 6

input: Could you share which Chemotherapeut. Index value was measured for O=C(Nc1ccc(Cl)cc1)c1cc(Cl)cc(Cl)c1NS(=O)(=O)c1ccc(Cl)cc1 [Verbindung 13] ?
output: 5

input: Check CCN(C(=O)c1cc(Cl)ccc1N(C)S(=O)(=O)c1ccc(Cl)c(Cl)c1)c1ccc(Cl)cc1 [Verbindung 42] too.
output: 10

input: Check O=C(Nc1ccc(Cl)cc1)c1cc(Cl)ccc1NS(=O)(=O)c1ccc(Br)cc1 [Verbindung 20] too.
output: 5

###

Listing of entries alongside the reported minimal effective dose.
tested on: Magen-Darm-Würmer(Ostertagia, Haemonchur, Trichostrongylus, Cooperia, jeweils verschiedene Spezies); assay: Chemotherapeutic test in sheep infected with gastrointestinal worms (egg count reduction / worm burden); type: in vivo; conditions: Trichostrongylus, po; Tabelle 2; Wirtstier: Schaf; p.o.; read-out: Dosis (>90% Reduktion der Wurmbürde)
Express the reported value numerically, then name its unit.

The cases that follow already have their minimal effective dose on record.
* O=C(Nc1ccc(Cl)cc1)c1cc([N+](=O)[O-])ccc1NS(=O)(=O)c1ccc(Cl)c(Cl)c1 | 7.5 mg/kg
* O=C(Nc1ccc(Oc2ccc(Cl)cc2)c(Cl)c1)c1cc(I)cc(I)c1O [Rafoxanide, reference compound] | 7.5 mg/kg
* O=C(Nc1ccc(Cl)cc1)c1cc(Cl)cc(Cl)c1NS(=O)(=O)c1ccc(Cl)cc1 | 10 mg/kg
* CCCCCCCCCCCCNC(=O)c1cc(Cl)cc(Cl)c1NS(=O)(=O)c1ccc(Cl)cc1 | 5 mg/kg
* CCN(C(=O)c1cc(Cl)ccc1N(C)S(=O)(=O)c1ccc(Cl)c(Cl)c1)c1ccc(Cl)cc1 | 5 mg/kg
* O=C(Nc1ccc(OC(F)(F)F)cc1)c1cc(Cl)ccc1NS(=O)(=O)c1ccc(Cl)c(Cl)c1 | 10 mg/kg
* CN(C(=O)c1cc(Cl)ccc1NS(=O)(=O)c1ccc(Cl)cc1)c1ccc(Cl)cc1 | 10 mg/kg
* O=C(Nc1ccc(Cl)cc1)c1cc(Cl)ccc1NS(=O)(=O)c1ccc(F)cc1 | 10 mg/kg

input: Could you share which minimal effective dose value was measured for O=C(Nc1ccc(Cl)cc1)c1cc(Cl)ccc1NS(=O)(=O)c1ccc(Br)cc1 ?
output: 10 mg/kg

###

test system: Leberegel (Fasciola hepatica); test: Chemotherapeutic test in sheep infected with liver fluke (egg count reduction / worm burden); assay type: in vivo; conditions: Tabelle 1; Wirtstier: Schaf; p.o.; quotient of Dosis tolerata maxima and Dosis curativa minima
property: Chemotherapeut. Index

* CCCCCCCCCCCCN(C)C(=O)c1cc(Cl)ccc1NS(=O)(=O)c1ccc(Cl)cc1 [Verbindung 19] | 5
* CCCCCCCCNC(=O)c1cc(Cl)ccc1NS(=O)(=O)c1ccc(Cl)c(Cl)c1 [Verbindung 27] | 8
* O=C(Nc1ccc(Cl)cc1)c1cc(Cl)ccc1NS(=O)(=O)c1ccc(Cl)cc1Cl [Verbindung 25] | 6
* CCN(C(=O)c1cc(Cl)ccc1N(C)S(=O)(=O)c1ccc(Cl)c(Cl)c1)c1ccc(Cl)cc1 [Verbindung 42] | 20
* O=C(Nc1ccc(Oc2ccc(Cl)cc2)c(Cl)c1)c1cc(I)cc(I)c1O [Rafoxanide, reference compound] | 6
* O=C(Nc1ccc(Cl)cc1Cl)c1cc(Cl)ccc1NS(=O)(=O)c1ccc(Cl)cc1 [Verbindung 2] | 8

input: Could you share which Chemotherapeut. Index value was measured for CCCCCCCCCCCCNC(=O)c1cc(Cl)ccc1NS(=O)(=O)c1ccc(Cl)cc1 [Verbindung 17] ?
output: 20

input: Check O=C(Nc1ccc(Cl)cc1)c1cc(Cl)ccc1NS(=O)(=O)c1ccc(Cl)cc1 [Verbindung 1] too.
output: über 25

###

tested on: Leberegel (Fasciola hepatica); assay: Chemotherapeutic test in sheep infected with liver fluke (egg count reduction / worm burden); type: in vivo; settings: Tabelle 3 (comparison of isomers); Wirtstier: Schaf; p.o.; quotient of Dosis tolerata maxima and Dosis curativa minima
property: Chemotherapeut. Index
Number only, no unit.

The cases that follow already have their Chemotherapeut. Index on record.
• O=C(Nc1ccc(Cl)c(Cl)c1)c1ccc(Cl)cc1NS(=O)(=O)c1ccc(Cl)cc1 [V6, reference compound] = 2
• O=C(Nc1ccc(F)cc1)c1cc(Cl)ccc1NS(=O)(=O)c1ccc(Cl)cc1 = 20
• O=C(Nc1ccc(Cl)cc1)c1ccc(NS(=O)(=O)c2ccc(Cl)cc2)cc1Br [V8, reference compound] = 2
• O=C(Nc1ccc(F)cc1)c1cc(NS(=O)(=O)c2ccc(Cl)cc2)ccc1Cl [V7, reference compound] = 2

input: Could you share which Chemotherapeut. Index value was measured for O=C(Nc1ccc(Cl)cc1)c1ccc(NS(=O)(=O)c2ccc(Cl)cc2)cc1Cl [V2, reference compound] ?
output: 3

input: Check O=C(Nc1ccc(Cl)cc1)c1ccc(Cl)cc1NS(=O)(=O)c1ccc(Cl)cc1 [V1, reference compound] too.
output: 2

input: Check O=C(Nc1ccc(Cl)cc1)c1cc(Br)ccc1NS(=O)(=O)c1ccc(Cl)cc1 too.
output: 20

input: Check O=C(Nc1ccc(Cl)c(Cl)c1)c1cc(Cl)ccc1NS(=O)(=O)c1ccc(Cl)cc1 too.
output: 10

###

system: Leberegel (Fasciola hepatica); experiment: Chemotherapeutic test in sheep infected with liver fluke (egg count reduction / worm burden); assay type: in vivo; settings: Tabelle 3 (comparison of isomers); Wirtstier: Schaf; p.o.; quotient of Dosis tolerata maxima and Dosis curativa minima
Listing of entries alongside the reported Chemotherapeut. Index.
Number only, no unit.

- O=C(Nc1ccc(Cl)cc1)c1ccc(Cl)c(NS(=O)(=O)c2ccc(Cl)cc2)c1 [V4, reference compound]: 4
- O=C(Nc1ccc(Cl)cc1)c1ccc(Br)cc1NS(=O)(=O)c1ccc(Cl)cc1 [V9, reference compound]: 3

input: Could you share which Chemotherapeut. Index value was measured for O=C(Nc1ccc(Cl)cc1)c1cc(NS(=O)(=O)c2ccc(Cl)cc2)ccc1Cl [V5, reference compound] ?
output: 2

input: Check O=C(Nc1ccc(Cl)c(Cl)c1)c1ccc(NS(=O)(=O)c2ccc(Cl)cc2)cc1Cl [V10, reference compound] too.
output: 5

input: Check O=C(Nc1ccc(Cl)cc1)c1ccc(NS(=O)(=O)c2ccc(Cl)cc2)c(Cl)c1 [V3, reference compound] too.
output: 2

###

Listing of entries alongside the reported Chemotherapeut. Index.
tested on: Leberegel (Fasciola hepatica); test: Chemotherapeutic test in sheep infected with liver fluke (egg count reduction / worm burden); type: in vivo; settings: Tabelle 1; Wirtstier: Schaf; p.o.; quotient of Dosis tolerata maxima and Dosis curativa minima
Number only, no unit.

The cases that follow already have their Chemotherapeut. Index on record.
- O=C(Nc1ccc(OC(F)(F)F)cc1)c1cc(Cl)ccc1NS(=O)(=O)c1ccc(Cl)c(Cl)c1 [Verbindung 35]: 20
- O=C(Nc1ccc(F)cc1)c1cc(Cl)cc(Cl)c1NS(=O)(=O)c1ccc(Cl)cc1 [Verbindung 14]: 5
- CCCCCCCCCCCCCCCCCCNC(=O)c1cc(Cl)ccc1NS(=O)(=O)c1ccc(Cl)c(Cl)c1 [Verbindung 32]: 10
- O=C(Nc1ccc(C(F)(F)F)cc1)c1cc(Cl)ccc1NS(=O)(=O)c1ccc(Cl)c(Cl)c1 [Verbindung 34]: 20
- CN(c1ccc(Cl)cc1C(=O)Nc1ccc(Cl)cc1)S(=O)(=O)c1ccc(Cl)c(Cl)c1 [Verbindung 30]: 10
- O=C(Nc1ccc(Br)cc1)c1cc(Cl)ccc1NS(=O)(=O)c1ccc(Cl)cc1 [Verbindung 5]: 10
- O=[N+]([O-])c1cc(Cl)cc(-c2cc(Cl)cc([N+](=O)[O-])c2O)c1O [Niclofolan, reference compound]: 3

Now for another entry.
input: Could you share which Chemotherapeut. Index value was measured for CCS(=O)(=O)c1ccc(NS(=O)(=O)c2ccc(Cl)c(Cl)c2)c(C(=O)Nc2ccc(Cl)cc2)c1 [Verbindung 40] ?
output: 10

###

Listing of entries alongside the reported Chemotherapeut. Index.
system: Leberegel (Fasciola hepatica); experiment: Chemotherapeutic test in sheep infected with liver fluke (egg count reduction / worm burden); assay type: in vivo; details: Tabelle 1; Wirtstier: Schaf; p.o.; quotient of Dosis tolerata maxima and Dosis curativa minima
Number only, no unit.

input: Hi! What's the reported Chemotherapeut. Index for O=C(Nc1ccc(Cl)cc1)c1cc(Br)ccc1NS(=O)(=O)c1ccc(Cl)cc1 on Leberegel (Fasciola hepatica)?
output: 10

input: Check O=C(Nc1ccc(F)cc1)c1cc(Cl)ccc1NS(=O)(=O)c1ccc(Cl)cc1 too.
output: 20

input: Check O=C(Nc1ccc(Cl)cc1)c1cc(Cl)cc(Cl)c1NS(=O)(=O)c1ccc(Cl)cc1 too.
output: 10

input: Check O=C(Nc1ccc(Cl)c(Cl)c1)c1cc(Cl)ccc1NS(=O)(=O)c1ccc(Cl)cc1 too.
output: 10

input: Check O=C(Nc1ccc(Cl)cc1)c1cc(Cl)c(Cl)cc1NS(=O)(=O)c1ccc(Cl)cc1 too.
output: 10

input: Check O=C(Nc1ccc(Cl)cc1)c1cc(Cl)ccc1NS(=O)(=O)c1ccc(Br)cc1 too.
output: 20
